System: HT-22
Assay: Cytoprotective activity against tunicamycin-induced cell death in mouse HT22 cells after 24 hrs by MTT assay
Format: functional, cell-based
Conditions: HT-22, 24 h
experimental readout: pEC50
# reply with the number alone; pEC50 is -log10 of concentration in mol/L

Consider the worked cases shown below.
- item smiles: "Cc1ccc2c(c1)/C(=C1/Nc3ccccc3C1=O)C(=O)N2"
  experimental readout: "pEC50"
  recorded value: 4.51
- item smiles: "COc1ccc2c(c1)C(=O)/C(=C1/C(=O)Nc3ccc(OC)cc31)N2"
  experimental readout: "pEC50"
  recorded value: 4.52
- item smiles: "O=C1Nc2cc(O)ccc2/C1=C1/Nc2ccccc2C1=O"
  experimental readout: "pEC50"
  recorded value: 4.63

Request: Return value of pEC50 for input `O=C1Nc2ccc(Br)cc2/C1=C1/Nc2ccccc2C1=O` , no commentary.
Result: 4.44

Request: Return value of pEC50 for input `O=C1Nc2ccc(Br)cc2/C1=C1/Nc2ccc(Br)cc2C1=O` , no commentary.
Result: 4.67

Request: Return value of pEC50 for input `O=C1Nc2ccc(Br)cc2/C1=C1/Nc2ccccc2/C1=N\O` , no commentary.
Result: 4.07

Request: Return value of pEC50 for input `CCc1ccc2c(c1)C(=O)/C(=C1/C(=O)Nc3ccccc31)N2` , no commentary.
Result: 4.61

Request: Return value of pEC50 for input `CC(=O)N1C(=O)/C(=C2\Nc3ccccc3C2=O)c2ccccc21` , no commentary.
Result: 5.01

====

System: HT-22
Assay: Effect on CHOP expression in mouse HT22 cells at 20 uM after 12 hrs by Western blot analysis
Assay type: cell-based
Details: ht-22, 12 h
experimental readout: Activity

- item smiles: "CC(=O)N1C(=O)/C(=C2\\Nc3ccccc3C2=O)c2ccccc21"
  experimental readout: "Activity"
  recorded value: "Non-Toxic"
- item smiles: "Cc1ccc2c(c1)/C(=C1/Nc3ccccc3C1=O)C(=O)N2"
  experimental readout: "Activity"
  recorded value: "Non-Toxic"
- item smiles: "O=C1Nc2ccc(Br)cc2/C1=C1/Nc2ccc(Br)cc2C1=O"
  experimental readout: "Activity"
  recorded value: "Non-Toxic"
- item smiles: "O=C1Nc2cc(O)ccc2/C1=C1/Nc2ccccc2C1=O"
  experimental readout: "Activity"
  recorded value: "Non-Toxic"
- item smiles: "O=C1Nc2ccc(Br)cc2/C1=C1/Nc2ccccc2/C1=N\\O"
  experimental readout: "Activity"
  recorded value: "Non-Toxic"
- item smiles: "O=C1Nc2ccc(Br)cc2/C1=C1/Nc2ccccc2C1=O"
  experimental readout: "Activity"
  recorded value: "Non-Toxic"
- item smiles: "COc1ccc2c(c1)C(=O)/C(=C1/C(=O)Nc3ccc(OC)cc31)N2"
  experimental readout: "Activity"
  recorded value: "Non-Toxic"

Shift focus to the following entry.
Request: Return value of Activity for input `CCc1ccc2c(c1)C(=O)/C(=C1/C(=O)Nc3ccccc31)N2` , no commentary.
Result: Non-Toxic

====

Tested on: HT-22
Experiment: Cytoprotective activity against tunicamycin-induced cell death in mouse HT22 cells at 20 uM after 24 hrs by MTT assay
Format: functional, cell-based
Activity calls are given as the source filed them. The calls are words filed in the database; no cut-off is given here.
Tick one outcome: active, inactive

Would you please look over these solved cases?
- item smiles: "Cc1ccc2c(c1)/C(=C1/Nc3ccccc3C1=O)C(=O)N2"
  label value: "active"
- item smiles: "O=C1Nc2ccccc2/C1=C1/Nc2ccccc2/C1=N\\O"
  label value: "active"
- item smiles: "CC(C)c1ccc2c(c1)/C(=C1/Nc3ccccc3/C1=N\\O)C(=O)N2"
  label value: "active"
- item smiles: "O=C1Nc2c(Br)cccc2/C1=C1/Nc2ccccc2C1=O"
  label value: "inactive"
- item smiles: "CC(C)(C)c1ccc2c(c1)/C(=C1/Nc3ccccc3/C1=N\\O)C(=O)N2"
  label value: "active"

Request: Recorded test call requested for `O=C1Nc2ccc(Br)cc2/C1=C1/Nc2ccccc2C1=O`
Result: active

Request: Recorded test call requested for `O=C1Nc2ccc(Br)cc2/C1=C1/Nc2ccc(Br)cc2C1=O`
Result: active

Request: Recorded test call requested for `O=C1Nc2cc(Br)ccc2/C1=C1/Nc2ccccc2/C1=N\O`
Result: inactive

====

Tested on: HT-22
Assay: Cytotoxicity against mouse HT22 cells at 20 uM after 24 hrs by MTT assay
Format: cell-based
Conditions: ht-22, 24 h
experimental readout: Activity

Consider the worked cases shown below.
- compound: "CCc1ccc2c(c1)C(=O)/C(=C1/C(=O)Nc3ccccc31)N2"
  tested on: "HT-22"
  experimental readout: "Activity"
  recorded value: "Non-Toxic"
- compound: "O=C1Nc2cc(O)ccc2/C1=C1/Nc2ccccc2C1=O"
  tested on: "HT-22"
  experimental readout: "Activity"
  recorded value: "Non-Toxic"
- compound: "O=C1Nc2ccc(Br)cc2/C1=C1/Nc2ccc(Br)cc2C1=O"
  tested on: "HT-22"
  experimental readout: "Activity"
  recorded value: "Non-Toxic"
- compound: "O=C1Nc2cc(Br)ccc2/C1=C1/Nc2ccccc2/C1=N\\O [6BIO]"
  tested on: "HT-22"
  experimental readout: "Activity"
  recorded value: "Toxic"
- compound: "CC(=O)N1C(=O)/C(=C2\\Nc3ccccc3C2=O)c2ccccc21"
  tested on: "HT-22"
  experimental readout: "Activity"
  recorded value: "Non-Toxic"
- compound: "O=C1Nc2ccccc2/C1=C1/Nc2ccccc2/C1=N\\O"
  tested on: "HT-22"
  experimental readout: "Activity"
  recorded value: "Toxic"
- compound: "Cc1ccc2c(c1)/C(=C1/Nc3ccccc3C1=O)C(=O)N2"
  tested on: "HT-22"
  experimental readout: "Activity"
  recorded value: "Non-Toxic"
- compound: "O=C1Nc2ccc(Br)cc2/C1=C1/Nc2ccccc2/C1=N\\O [INDIRUBIN 2]"
  tested on: "HT-22"
  experimental readout: "Activity"
  recorded value: "Non-Toxic"

Request: Return value of Activity for input O=C1Nc2ccccc2/C1=C1/Nc2ccccc2C1=O [INDIRUBIN] , no commentary.
Result: Toxic

Request: Return value of Activity for input `O=C1Nc2ccc(Br)cc2/C1=C1/Nc2ccc(Br)cc2/C1=N\O` , no commentary.
Result: Toxic

Request: Return value of Activity for input `COc1ccc2c(c1)C(=O)/C(=C1/C(=O)Nc3ccc(OC)cc31)N2` , no commentary.
Result: Non-Toxic

Request: Return value of Activity for input `O=C1Nc2ccc(Br)cc2/C1=C1/Nc2ccccc2C1=O` , no commentary.
Result: Non-Toxic

====

Tested on: HT-22
Assay: Cytoprotective activity against tunicamycin-induced cell death in mouse HT22 cells at 20 uM after 24 hrs by MTT assay
Assay type: functional, cell-based
The source made the active and inactive calls. No cut-off for these calls is given here.
Tick one outcome: active, inactive

Would you please look over these solved cases?
- item smiles: "O=C1Nc2ccccc2/C1=C1/Nc2cc(Br)ccc2/C1=N\\O"
  label value: "active"
- item smiles: "O=C1Nc2cc(O)ccc2/C1=C1/Nc2ccccc2C1=O"
  label value: "active"
- item smiles: "O=C1Nc2ccc(Br)cc2/C1=C1/Nc2ccc(Br)cc2/C1=N\\O"
  label value: "active"
- item smiles: "CC(=O)N1C(=O)/C(=C2\\Nc3ccccc3C2=O)c2ccccc21"
  label value: "active"
- item smiles: "CN1C(=O)/C(=C2\\Nc3ccccc3C2=O)c2ccc(Br)cc21"
  label value: "inactive"
- item smiles: "O=C1Nc2ccc(Br)cc2/C1=C1/Nc2ccccc2/C1=N\\O"
  label value: "active"
- item smiles: "Cc1ccc2c(c1)/C(=C1/Nc3ccccc3/C1=N\\O)C(=O)N2"
  label value: "active"
- item smiles: "COc1ccc2c(c1)C(=O)/C(=C1/C(=O)Nc3ccc(OC)cc31)N2"
  label value: "active"
- item smiles: "CN1C(=O)/C(=C2\\Nc3ccccc3\\C2=N/O)c2ccc(Br)cc21"
  label value: "active"
- item smiles: "COc1ccc2c(c1)NC(=O)/C2=C1\\Nc2ccccc2\\C1=N/O"
  label value: "active"

Then there is this molecule:
Request: Recorded test call requested for `CCc1ccc2c(c1)/C(=C1/Nc3ccccc3/C1=N\O)C(=O)N2`
Result: active

====

Test system: HT-22
Test: Cytoprotective activity against tunicamycin-induced cell death in mouse HT22 cells at 20 uM after 24 hrs by MTT assay
Assay type: functional, cell-based
Active and inactive are the calls of the source. The rule behind the calls is not given here.
Tick one outcome: active, inactive

Would you please look over these solved cases?
- item smiles: "O=C1Nc2cc(Br)ccc2/C1=C1/Nc2ccccc2C1=O"
  label value: "inactive"
- item smiles: "COc1ccc2c(c1)C(=N\\O)/C(=C1/C(=O)Nc3ccccc31)N2"
  label value: "active"
- item smiles: "COc1ccc2c(c1)/C(=C1/Nc3ccccc3/C1=N\\O)C(=O)N2"
  label value: "active"
- item smiles: "O=C1Nc2ccccc2/C1=C1/Nc2ccc(Br)cc2/C1=N\\O"
  label value: "active"

Request: Recorded test call requested for `COc1cc2c(cc1OC)/C(=C1/Nc3ccccc3/C1=N\O)C(=O)N2`
Result: active

Request: Recorded test call requested for `CCc1ccc2c(c1)C(=O)/C(=C1/C(=O)Nc3ccccc31)N2`
Result: active

Request: Recorded test call requested for `COc1cccc2c1NC(=O)/C2=C1\Nc2ccccc2\C1=N/O`
Result: active
